System: SF-539 CNS
Assay: NCI-60 one-dose screen, 48 h (100 = growth as untreated, 0 = no growth, -100 = all killed)
Conditions: 10 µM unless noted
About 83,000 compounds went through this panel and 20% of them were active in at least one assay; those are over-represented in the sample as a whole.
Could you please report measured growth for the items listed next?
Give the value, in units of %, as a plain number.

Any idea what growth was measured for COc1cc(-c2cc3cnccc3c3nc(N)c4ccncc4c23)cc(OC)c1OC ?
38

Another: C#CCCCCCCC[C@@H]1OC(=O)[C@H]([C@@H](C)CC)NC(=O)[C@H]([C@@H](C)CC)NC(=O)CC(=O)[C@@H]1C
97.5

Another: C/C=C(/C)C(=O)OC1C=C(CO)C(=O)C(OC(=O)/C(C)=C\C)C1C(C)C (centres undefined)
-92.1

Another: O=c1c2c(c3ccccc3n1-c1ccccc1)NC(=S)NC2c1ccccc1 (centres undefined)
94.8

---

Tested on: EKVX NSCLC
Assay: NCI-60 one-dose screen, 48 h (100 = growth as untreated, 0 = no growth, -100 = all killed)
Conditions: 10 µM
This is part of a sample that, as a whole, favours compounds with a hit. Of some 83,000 tested, about 20% had one in any assay.
EXPERIMENTAL ENDPOINT: growth (%)
Give the value, in units of %, as a plain number.

Any idea what growth was measured for O=C(C(=O)N1CCOCC1)c1ccc(O[C@H]2O[C@H](CO)[C@@H](O)[C@H](O)[C@@H]2O)cc1 ?
116

Another: COc1ccc2sc(-n3nc4nc5n(c(=O)c4c3N)-c3ccccc3Sc3ccccc3-5)nc2c1
42.1

Another: CC(=O)OCC(=O)[C@@]1(O)[C@H](C)C[C@H]2[C@@H]3C=C(C)C4=Cc5c(cnn5-c5ccc(F)cc5)C[C@]4(C)[C@H]3[C@@H](O)C[C@@]21C
28.5

Another: CC([C@H]1CC=C2C3CCC4=C[C@@H](N(C)C)CC[C@]4(C)C3CC[C@@]21C)N(C)C (some centres not stated)
-38.8

Another: C=CCSc1nnc(COc2ccc3c(C)c(Cc4ccccc4)c(=O)oc3c2C)o1
108

Another: CCCCCCCCCCCCCCCC[n+]1cccc(C#N)c1
98

Another: CCCCCCCCCCCCCCCCCC1=NCCN1CCNC(C)=O
80

---

Tested on: MALME-3M melanoma
Experiment: NCI-60 one-dose screen, 48 h
Conditions: 10 µM unless noted
Compounds without any hit were thinned out: in the full panel of roughly 83,000, 20% have a hit. The source made the active and inactive calls. Rule for the calls: active = growth percent below 10; inactive = the rest.
Please state which outcome applies, choosing from active, inactive

# lookup: test call for COc1ccc2cnc(N)c(C#Cc3cc(C(=O)Nc4ccc(CN5CCN(C)CC5)c(C(F)(F)F)c4)cnc3C)c2c1
active

Another: O=C(/C=C/c1ccc(Cl)cc1)c1ccc(Cl)cc1
inactive

Another: CCN(CCO)CCNc1ccc(C)c2sc3cc(OC)ccc3c(=O)c12
inactive

Another: CCCCN(CCCC)CCCNc1c2c(nc3ccc(Cl)cc13)CCCC2
inactive

Another: CCCCCCCCCCCCCCCCNC(=S)N/N=C/c1ccc(OC)cc1
inactive

Another: CCCCCCCCCC[N+](C)(C)C
inactive

Another: O=C(CCC(=O)N(CCO)CCO)N(CCO)CCO
inactive

Another: CN(C)CCOC(=O)C(C)(C)C
inactive

Another: COc1ccc(-c2nc(SCC(C)C)nc(Nc3ccc(C)cc3)c2C#N)cc1
inactive

Another: Nc1cc2c(cc1Br)[nH]c(=O)c1ccccc12
inactive

Another: O=C(Nc1ccc(-n2cc(-c3ccncc3)c(-c3ccc(Cl)c(O)c3)n2)cc1)Nc1cc(C(F)(F)F)cc(C(F)(F)F)c1
inactive

Another: Cc1c([C@H](C(Cl)Cl)[C@H](O)[C@H]2C[C@H](C)C(=O)O2)ccc2c1C(=O)[C@H]1[C@H]2C[C@@H](Br)[C@@]23O[C@@H](CO[C@H]2O)CC13C (some centres not stated)
inactive

Another: CCCCCCCCCCC1OC(C)CC(C)O1 (configuration not stated)
inactive

Another: CCCCCCNc1nc(N2CCOCC2)c2[nH]c(NCCCCCC)nc2n1
active

Another: O=C(/C=C\c1ccc(NCc2ccc(C(=O)O)cc2)cc1)CCl
inactive

Another: NC(=O)c1c(Nc2ccccc2)nn2cc(-c3nc4ccccc4s3)c(N)nc12
inactive

Another: Nc1nc2cc(O)ccc2n2cc3c(F)cccc3c12
inactive

Another: CC1(C)CC(=O)C2=C(C1)Oc1nc(N)c(C#N)c(N)c1C2c1ccc(F)cc1 (configuration not stated)
inactive

Another: NNC(=O)CNc1ccc2ccccc2c1
inactive

Another: O=C(Nc1ccc(-n2cc(-c3ccncc3)c(-c3ccc(Cl)c(O)c3)n2)cc1)c1cc(C(F)(F)F)cc(C(F)(F)F)c1
inactive

Another: CCOC1=C(Cl)C(=O)C(OCC)=C(Cl)C1=O
inactive

Another: Oc1ccc(CN(Cc2ccc(C(F)(F)F)cc2)Cc2ccc(O)c3ncccc23)c2cccnc12
inactive

Another: O=C(CCCC(=O)Nc1ccc(Cn2nnc3cc(Cl)c(Cl)cc32)cc1)Nc1ccc(CN2N=NC3C=C(Cl)C(Cl)=CC32)cc1 (configuration not stated)
inactive

Another: Cc1ccc(NCc2cn(-c3ccc(C(=O)O)cc3)nc2-c2ccc(C(=O)O)cc2)cc1
inactive

Another: Clc1ccc(N/N=C(\c2ccccc2)c2ccccn2)nc1
inactive

Another: O=C(Nc1ccc(Cl)c(Cl)c1)O/N=C\c1c(Cl)ccc([N+](=O)[O-])c1Cl
active

Another: Oc1ccccc1\C=N/N=C/C=C/c1ccccc1
inactive
